- Test system: Inhibin beta A chain (activin A)
- Protocol summary: small molecules binding activin A – biochemical, small-molecule microarray, 635 nm fluorescence scan, primary screen (AID 1107);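 note: mouse activin A protein probed at 4.33 µg/mL on printed slides; score merges bound-protein fluorescence near 667 nm with spot signal-to-noise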
- Condition notes: INHBA, higher = more signal
Measure: composite z-score
When you answer, write just the number.

{"Compound": "COc1ccc([Si](C)(C)[C@@H]2[C@@H](CCn3cc([C@H](O)c4ccccc4)nn3)O[C@]3(C(=O)N(Cc4cccc(N5CCC5=O)c4)c4ccccc43)[C@H]2C)cc1", "composite z-score": 0.521}
{"Compound": "O=C1OCCC=C[C@H]2OC34C=CCN(Cn5nnc6ccccc65)C(=O)[C@H]3N(CCO)C(=O)[C@@H]4C12 (stereo partly drawn)", "composite z-score": -0.539}

Okay, now this compound:
Reported composite z-score for C=CCC(OC(C)=O)[C@@H]1[C@@H](N(Cc2ccc(-c3cccc(C(F)(F)F)c3)o2)C(=O)c2cccc3ccccc23)c2cc(OCCCO)ccc2N1C(=O)Cc1ccc2ccccc2c1 (stereo partly drawn) was 0.95

----------
- Protocol summary: viability profiling in RPMI8226 myeloma cells – cell-based, resazurin fluorescence, basal, 24 h, PK04 Diversity Set, profiling panel (AID 1180);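 note: RPMI8826 multiple myeloma cell line at 5000 cells per well; test concentration not given here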
- Condition notes: higher = more signal
Kind request: treat -0.4 as inclusive, so z-score at -0.4 or higher is Fulfilled, anything lower is Not fulfilled.

Sample answers from the record:
{"Compound": "CCOC(=O)C1=C[C@@H](C(C)C)N(S(=O)(=O)c2ccc(C)cc2)[C@H]1c1ccccc1F", "Assigned category": "Not fulfilled"}
{"Compound": "COc1ccc(C(=O)Nc2ccc(CN3C(=O)[C@]4(O[C@H](CC(=O)N5CCC[C@H]5CO)[C@@H]([Si](C)(C)c5ccc(OC)cc5)[C@@H]4C)c4ccccc43)cc2)cc1", "Assigned category": "Not fulfilled"}
{"Compound": "COc1ccc([C@H]2C[C@H]3C(Br)=C[C@@]2(CO)C(=O)[C@]32CO2)cc1", "Assigned category": "Fulfilled"}
{"Compound": "COCCOC(=O)N1C(=O)[C@@]2(c3cc(C#CC4=CCCCC4)ccc31)[C@H](c1ccc(OCCO)cc1)N1[C@H](c3ccccc3)[C@H](c3ccccc3)OC(=O)[C@H]1[C@@H]2C(=O)N1CCc2cc(OC)c(OC)cc2C1", "Assigned category": "Fulfilled"}
{"Compound": "O=C1NC(=O)C2C1C=CC(C(O)c1ccc(I)cc1)N2Nc1ccc(Cl)cc1Cl (stereo not drawn)", "Assigned category": "Fulfilled"}
{"Compound": "C[N+](C)(C)CCCC[C@@H]1NC(=O)[C@@H]2C[C@H](C(=O)NCCCCCN)[C@H](c3ccc(O)cc3)N2C1=O", "Assigned category": "Fulfilled"}
{"Compound": "[N-]=[N+]=Nc1ccccc1C[C@]1(C(=O)N2CCCCC2)COC(c2ccc(OCCCO)cc2)=N1", "Assigned category": "Fulfilled"}

Let's switch to this compound now.
Input line: Entry CN(C)CCCC[C@@H]1NC(=O)[C@H]2C[C@@H](C(=O)NCCCCCN)[C@@H](c3cccc(OCCO)c3)N2C1=O : is its z-score no less than -0.4?
Output line: Fulfilled

----------
Reported composite z-score values are given for each entry in this list.
- Test system: Streptavidin (Streptomyces avidinii) (UniProt P22629)
- Sequence (P22629 whole entry, looked up): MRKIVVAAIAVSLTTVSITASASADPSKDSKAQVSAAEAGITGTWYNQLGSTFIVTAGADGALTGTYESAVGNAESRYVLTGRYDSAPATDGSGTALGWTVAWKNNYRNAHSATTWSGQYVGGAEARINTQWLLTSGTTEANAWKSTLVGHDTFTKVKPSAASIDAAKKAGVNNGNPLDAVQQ
- Protocol summary: compounds binding control protein streptavidin – biophysical, small-molecule microarray, 635/667 nm fluorescence, artefact control for SMM compound annotation, primary screen (AID 1147);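 note: signal reflects streptavidin binding to arrayed compounds as a control protein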
- Condition notes: higher = more signal
I'd appreciate a reply containing only the number, no unit.

{"Compound": "COC(=O)c1c(CC[C@@H](CO)NC(=O)N[C@@H](Cc2ccccc2)Cn2cc(-c3ccccn3)nn2)oc(C(=O)N2CCOCC2)c1C(=O)OC", "Test system": "Streptavidin (Streptomyces avidinii) (UniProt P22629)", "composite z-score": -0.0372}

Reported composite z-score of COc1ccc([Si](C)(C)[C@@H]2[C@@H](CCO)O[C@]3(C(=O)N(Cc4cccc(N5CCOC5=O)c4)c4ccccc43)[C@H]2C)cc1 : 0.424

Reported composite z-score of CCOC(=O)C[C@H]1[C@H](OC(=O)c2cc3ccccc3oc2=O)[C@@H](NC(=O)CC(C)C)c2cc(OCCCO)ccc2N1C(=O)c1ccccc1 : 0.131

Numbers sourced from PubChem BioAssay.
